Target: BRD4 (BD1+BD2) bromodomain (Homo sapiens (Human), UniProt O60885)
Assay: BRD4 binding inhibition (AlphaScreen, GST-BRD4 vs tetraacetylated histone H4 peptide)
Conditions: GST-BRD4 (BD1+BD2) vs biotinylated acetyl-histone H4 peptide, AlphaScreen; read-out: BRD4 IC50
Counter-ions that a name gives are not always drawn.
measured-parameter: IC50 (nM)

Below are worked cases with known answers.
INSERT INTO results (compound, numeric_readout) VALUES
  ('Cc1nnc2c(NCCCCN)nc3cc(N4CCOCC4)ccc3n12 [Example 498, dihydrochloride]', 98),
  ('Cc1nnc2c(NCCCCNC(=O)[C@H](O)C(C)C)nc3cc(N4C[C@@H](C)O[C@@H](C)C4)ccc3n12', 65),
  ('Cc1nnc2c(NCCCCOC(=O)C(C)C)nc3ccccc3n12', 44);

(a) Cc1nnc2c(NCCCCNC(=O)[C@@H](O)C(C)C)nc3cc(F)c(F)cc3n12
(b) COc1ccc2nc(NCCCCNC(=O)c3ccccc3Cl)c3nnc(C)n3c2c1
(c) Cc1nnc2c(NCCCCN)nc3cc(OC(F)(F)F)ccc3n12
// ascending sort on recorded IC50 Use the labels to give the requested order.
a, b, c

* * *

Molecular target: BRD4 (BD1+BD2) bromodomain (Homo sapiens (Human), UniProt O60885)
Test: BRD4 binding inhibition (AlphaScreen, GST-BRD4 vs tetraacetylated histone H4 peptide)
Settings: GST-BRD4 (BD1+BD2) vs biotinylated acetyl-histone H4 peptide, AlphaScreen; read-out: BRD4 IC50
measured-parameter: IC50 (nM)

INSERT INTO results (molecule, target, numeric_readout) VALUES
  ('COc1ccc2c(c1)nc(NCCCCNC(=O)[C@@H](C(C)C)N(C)C)c1nnc(C)n12', 'BRD4 (BD1+BD2) bromodomain (Homo sapiens (Human), UniProt O60885)', 18),
  ('COC(=O)c1ccc2c(c1)nc(NCCCCNC(=O)OC(C)(C)C)c1nnc(C)n12', 'BRD4 (BD1+BD2) bromodomain (Homo sapiens (Human), UniProt O60885)', 28),
  ('COCCOc1ccc2c(c1)nc(NCCCCNC(=O)C=C(C)C)c1nnc(C)n12', 'BRD4 (BD1+BD2) bromodomain (Homo sapiens (Human), UniProt O60885)', 14),
  ('COc1cc2nc(NCCCCNC(=O)CC(C)C)c3nnc(C)n3c2cc1OC', 'BRD4 (BD1+BD2) bromodomain (Homo sapiens (Human), UniProt O60885)', 28),
  ('COc1ccc2c(c1)nc(NCCCCNC(=O)[C@@H](NC(=O)OCC(C)C)C(C)C)c1nnc(C)n12', 'BRD4 (BD1+BD2) bromodomain (Homo sapiens (Human), UniProt O60885)', 10);

(A) CCC(C)CC(=O)NCCCCNc1nc2cc(OC)c(OC)cc2n2c(C)nnc12 (centres unmarked)
(B) Cc1nnc2c(NCCCCNC(=O)c3ccccc3Cl)nc3cc4c(cc3n12)OCCO4
Endpoint returns whichever of A and B has the numerically higher IC50. Lab log: write the label of the selected item as the result.
B
(B: 24 nM, A: 15 nM)

(P) COc1cc2nc(NCCCCNC(=O)CC(C)C)c3nnc(C)n3c2cc1NC(=S)NC(C)C
(Q) Cc1nnc2c(NCCCCNC(=O)OC(C)(C)C)nc3cc(OC(C)C)ccc3n12
(R) COCCOc1ccc2c(c1)nc(NCCCCNC(=O)[C@@H](NC(=O)OCC(C)C)C(C)C)c1nnc(C)n12
(S) Cc1nnc2c(NCCCCNC(=O)c3ccc(Cl)cc3)nc3ccccc3n12
(T) COc1cc2nc(NCCCCNC(=O)[C@@H](O)C(C)C)c3nnc(C)n3c2cc1C(F)(F)F
Could you please order the items by IC50, going from the lowest number to the highest? Present the labels in the sequence the task asks for.
R, T, P, Q, S
